Would you mind telling me the reported log p of each entry?
# PROCEDURE DETAILS: logP(HCOOH) by HPLC
# Type: physicochemical
# ASSAY CONDITIONS: HPLC on reversed phase columns, pH 2.7, 0.1% formic acid in water / acetonitrile, linear gradient 10% to 95% acetonitrile; EEC directive 79/831 Annex V.A8
Give bare numbers.

Some compounds with recorded log p:
>>> experimental_value("CCON=C(C(=O)Nc1nc(CON=C(c2ccccc2)c2nnnn2C)cs1)c1ccc(Cl)cc1")
4.56
>>> experimental_value("C=C=CCCCOC(=O)Nc1nc(CON=C(c2ccccc2)c2nnnn2C)cs1")
3.69
>>> experimental_value("Cc1nnnn1C(=NOCc1csc(NC(=O)COC2CCCCC2)n1)c1ccccc1")
3.89

I have this compound here, CC(OC1CCCCC1)C(=O)Nc1nc(CON=C(c2ccccc2)c2nnnn2C)cs1 (stereo not shown) , and I need its recorded log p.
4.14

====

Would you mind telling me the reported log p of each entry?
# PROCEDURE DETAILS: logP(HCOOH) by HPLC
# Format: physicochemical
# ASSAY CONDITIONS: HPLC on reversed phase columns, pH 2.7, 0.1% formic acid in water / acetonitrile, linear gradient 10% to 95% acetonitrile; EEC directive 79/831 Annex V.A8
One number for each entry.

>>> experimental_value("CC(=NOCC(=O)Nc1nc(CON=C(c2ccccc2)c2nnnn2C)cs1)c1ccccc1 [Example 36]")
3.76
>>> experimental_value("Cc1nnnn1C(=NOCc1cccc(NC(=O)C(C)OC2CCC2)n1)c1ccccc1 (centres unmarked) [compound 185]")
3.74
>>> experimental_value("Cc1nnnn1C(=NOCc1csc(NC(=O)OCC2CCCCC2)n1)c1ccccc1 [Example 25]")
4.41
>>> experimental_value("CON=C(C(=O)Nc1nc(CON=C(c2ccccc2)n2nnnc2C)cs1)c1ccc(Cl)cc1Cl [Example 23]")
4.49
>>> experimental_value("CC(OC1CCCCCC1)C(=O)Nc1nc(CON=C(c2ccccc2)c2nnnn2C)cs1 (centres unmarked) [Example 95]")
4.51

The following compounds each have a reported value; give each one's log p.
1. Cn1nnnc1C(=NOCc1cccc(NC(=O)OCCC2CC2)n1)c1ccccc1 [compound 159]
2. CC(OC1CCCCC1)C(=O)Nc1cccc(CON=C(c2ccccc2)c2nnnn2C)n1 (centres unmarked) [Example 99]

[3.72, 4.49]

The following compounds each have a reported value; give each one's log p.
1. Cc1nnnn1C(=NOCc1cccc(NC(=O)C(C)OC2CCCC(C)C2)n1)c1ccccc1 (centres unmarked) [compound 190]
2. CON=C(C(=O)Nc1cccc(CON=C(c2ccccc2)n2nnnc2C)n1)c1ccc(Cl)cc1 [compound 132]
3. C#CCOC(CC)C(=O)Nc1cccc(CON=C(c2ccccc2)c2nnnn2C)n1 (centres unmarked) [compound 121]

1. 4.96
2. 4.69
3. 3.27

The following compounds each have a reported value; give each one's log p.
1. C=C(C)C(C)=CCC(C)OCC(=O)Nc1cccc(CON=C(c2ccccc2)c2nnnn2C)n1 (centres unmarked) [compound 113]
2. C=CCOC(C)C(=O)Nc1cccc(CO/N=C(/c2ccccc2)c2nnnn2C)n1 (centres unmarked) [Example 42]
3. CC(=NOCC(=O)Nc1nc(CON=C(c2ccccc2)c2nnnn2C)cs1)C(C)(C)C [Example 34]
4. CC(=NOCC(=O)Nc1nc(CON=C(c2ccccc2)n2nnnc2C)cs1)c1ccccc1 [Example 39]
5. CON=C(C(=O)Nc1cccc(CON=C(c2ccccc2)n2nnnc2C)n1)c1ccc(F)cc1 [compound 136]
6. Cc1nnnn1C(=NOCc1csc(NC(=O)C(C)OC2CCCCC2)n1)c1ccccc1 (centres unmarked) [Example 94]

1: 4.73; 2: 3.35; 3: 3.99; 4: 3.79; 5: 4.11; 6: 4.21

I have this compound here, CON=C(C(=O)Nc1cccc(CON=C(c2ccccc2)n2nnnc2C)n1)c1ccc(Cl)cc1 [compound 135] , and I need its recorded log p.
4.51

====

# PROCEDURE DETAILS: logP(HCOOH) by HPLC
# Format: physicochemical
# ASSAY CONDITIONS: HPLC on reversed phase columns, pH 2.7, 0.1% formic acid in water / acetonitrile, linear gradient 10% to 95% acetonitrile; EEC directive 79/831 Annex V.A8
ASSAY METRIC: log p
Numbers only.

>>> experimental_value("C#CCOCC(=O)Nc1cccc(CON=C(c2ccccc2)c2nnnn2C)n1 [Example 4]")
2.8
>>> experimental_value("CON=C(C(=O)Nc1nc(CON=C(c2ccccc2)n2nnnc2C)cs1)c1ccc(Br)cc1 [Example 29]")
4.41

The following molecules each have a reported value; give each one's log p.
1. C=CCOC(C)C(=O)Nc1nc(CO/N=C(/c2ccccc2)n2nnnc2C)cs1 (centres unmarked) [Example 45]
2. CC(OC1CCCCC1)C(=O)Nc1nc(CON=C(c2ccccc2)c2nnnn2C2CC2)cs1 (centres unmarked) [compound 164]
3. Cn1nnnc1C(=NOCc1csc(NC(=O)COC2CCCC2)n1)c1ccccc1 [Example 84]

[3.19, 4.53, 3.53]

====

# PROCEDURE DETAILS: logP(HCOOH) by HPLC
# Type: physicochemical
# ASSAY CONDITIONS: HPLC on reversed phase columns, pH 2.7, 0.1% formic acid in water / acetonitrile, linear gradient 10% to 95% acetonitrile; EEC directive 79/831 Annex V.A8
Would you mind telling me the reported log p of each entry?
Answers are plain numbers.

The following molecules each have a reported value; give each one's log p.
1. Cn1nnnc1C(=NOCc1csc(NC(=O)OCCC2CCCCC2)n1)c1ccccc1 [Example 62]
2. Cn1nnnc1C(=NOCc1csc(NC(=O)COC2CCCCC2)n1)c1ccccc1 [Example 12]

1. 4.66
2. 3.85

The following molecules each have a reported value; give each one's log p.
1. Cn1nnnc1C(=NOCc1cccc(NC(=O)OCCCC2CCCCC2)n1)c1ccccc1 [Example 71]
2. C=CCCOC(C)C(=O)Nc1nc(CO/N=C(/c2ccccc2)n2nnnc2C)cs1 (centres unmarked) [Example 43]
3. C#CCOC(C(=O)Nc1cccc(CON=C(c2ccccc2)n2nnnc2C)n1)C(C)C (centres unmarked) [compound 120]
4. Cc1nnnn1C(=NOCc1cccc(NC(=O)OCCC2CCCC2)n1)c1ccccc1 [compound 156]
5. CON=C(C(=O)Nc1cccc(CON=C(c2ccccc2)n2nnnc2C)n1)c1ccccc1Cl [compound 131]
6. CCC(OC1CCCCC1)C(=O)Nc1nc(CON=C(c2ccccc2)c2nnnn2C)cs1 (centres unmarked) [compound 173]

5.45
3.53
3.7
4.71
4.18
4.42

====

# PROCEDURE DETAILS: logP(HCOOH) by HPLC
# Type: physicochemical
# ASSAY CONDITIONS: HPLC on reversed phase columns, pH 2.7, 0.1% formic acid in water / acetonitrile, linear gradient 10% to 95% acetonitrile; EEC directive 79/831 Annex V.A8
ASSAY METRIC: log p
Answers are plain numbers.

>>> experimental_value("CCC(OC1CCC1)C(=O)Nc1nc(CON=C(c2ccccc2)c2nnnn2C)cs1 (centres unmarked)")
3.76
>>> experimental_value("Cc1nnnn1C(=NOCc1csc(NC(=O)C(C)OC2CCCCCC2)n1)c1ccccc1 (centres unmarked)")
4.58
>>> experimental_value("C#CCOCC(=O)Nc1nc(CON=C(c2ccccc2)c2nnnn2C)cs1")
2.64
>>> experimental_value("C#CCOC(C)C(=O)Nc1nc(CO/N=C(/c2ccccc2)n2nnnc2C)cs1 (centres unmarked)")
2.92
>>> experimental_value("Cc1nnnn1/C(=N\\OCc1csc(NC(=O)OC(C)CC2CC2)n1)c1ccccc1 (centres unmarked)")
3.87

The following molecules each have a reported value; give each one's log p.
1. Cc1nnnn1C(=NOCc1cccc(NC(=O)COC2CCCC2)n1)c1ccccc1
2. Cc1nnnn1C(=NOCc1csc(NC(=O)OCCC2CCCC2)n1)c1ccccc1
3. Cc1nnnn1C(=NOCc1cccc(NC(=O)C(C)OC2CCCCC2)n1)c1ccccc1 (centres unmarked)
4. Cn1nnnc1C(=NOCc1cccc(NC(=O)OCC2CCCC2)n1)c1ccccc1
5. CC(=NOCC(=O)Nc1cccc(CON=C(c2ccccc2)c2nnnn2C)n1)C(C)(C)C
6. Cc1nnnn1C(=NOCc1cccc(NC(=O)OCCC2CC2)n1)c1ccccc1
7. CCC(OC1CCCCCC1)C(=O)Nc1nc(CON=C(c2ccccc2)c2nnnn2C)cs1 (centres unmarked)

3.92
4.33
4.46
4.25
4.23
3.81
4.87

The following molecules each have a reported value; give each one's log p.
1. Cc1nnnn1C(=NOCc1cccc(NC(=O)OC(C)C2CCCC2)n1)c1ccccc1 (centres unmarked)
2. Cc1nnnn1C(=NOCc1cccc(NC(=O)COC2CCCCCC2)n1)c1ccccc1
3. CC1CCC(C(C)C)C(OCC(=O)Nc2nc(CON=C(c3cccc(F)c3)c3nnnn3C)cs2)C1 (centres unmarked)
4. CON=C(C(=O)Nc1nc(CON=C(c2ccccc2)n2nnnc2C)cs1)c1cccc(Cl)c1Cl
5. CC(OC1CCCCCC1)C(=O)Nc1cccc(CON=C(c2ccccc2)c2nnnn2C)n1 (centres unmarked)

1: 4.71; 2: 4.67; 3: 5.47; 4: 4.32; 5: 4.8
